target: AR wildtype (wt) (Homo sapiens, UniProt P10275); assay: cell-based
Sequence (P10275 whole entry): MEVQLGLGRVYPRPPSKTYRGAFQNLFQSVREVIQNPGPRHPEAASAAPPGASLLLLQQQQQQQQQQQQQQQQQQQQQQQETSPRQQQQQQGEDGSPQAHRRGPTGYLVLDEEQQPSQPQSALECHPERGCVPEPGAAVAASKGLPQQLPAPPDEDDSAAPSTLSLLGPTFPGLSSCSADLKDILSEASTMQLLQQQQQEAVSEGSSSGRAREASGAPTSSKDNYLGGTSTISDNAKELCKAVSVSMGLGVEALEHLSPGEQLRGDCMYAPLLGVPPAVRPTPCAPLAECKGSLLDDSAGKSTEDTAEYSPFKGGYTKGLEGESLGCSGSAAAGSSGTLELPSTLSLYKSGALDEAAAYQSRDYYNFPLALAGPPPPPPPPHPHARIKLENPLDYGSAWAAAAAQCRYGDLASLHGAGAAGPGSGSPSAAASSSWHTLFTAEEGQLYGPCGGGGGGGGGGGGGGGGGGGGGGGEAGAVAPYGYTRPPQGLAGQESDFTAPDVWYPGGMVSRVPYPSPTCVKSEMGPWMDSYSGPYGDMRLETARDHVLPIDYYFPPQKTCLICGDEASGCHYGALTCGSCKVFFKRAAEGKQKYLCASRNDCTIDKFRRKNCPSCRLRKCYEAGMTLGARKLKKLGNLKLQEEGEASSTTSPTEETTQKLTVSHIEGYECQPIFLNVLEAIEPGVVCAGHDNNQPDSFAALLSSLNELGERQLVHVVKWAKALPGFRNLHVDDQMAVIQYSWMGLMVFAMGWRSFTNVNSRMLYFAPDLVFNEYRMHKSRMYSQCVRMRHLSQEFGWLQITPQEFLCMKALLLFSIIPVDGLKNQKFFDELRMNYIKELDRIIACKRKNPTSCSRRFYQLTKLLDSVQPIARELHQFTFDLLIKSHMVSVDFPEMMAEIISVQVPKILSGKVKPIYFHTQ

mol.smiles: CCOC(=O)c1cn(C[C@](C)(O)C(=O)Nc2ccc(C#N)c(C(F)(F)F)c2)c2ccc(F)cc12
scale.unit: nM
IC50: 198

====

test: Metabolic stability in mouse liver microsomes (MLM); conditions: mouse, microsomes, pH 7.5
List of half-life at 1 μM values.
recorded.metric: half-life at 1 μM

compound: C[C@](O)(Cn1nc(Cl)c2cc(F)ccc21)C(=O)Nc1ccc(C#N)c(Cl)c1 [Compound 99F]
reported.result: 27.4 min
//
compound: C[C@](O)(Cn1nc(Cl)c2cc(F)ccc21)C(=O)Nc1ccc(C#N)c(C(F)(F)F)c1 [Compound 99A]
reported.result: 34 min
//
compound: C[C@](O)(Cn1cc(C=NO)c2cc(F)ccc21)C(=O)Nc1cnc(C#N)c(C(F)(F)F)c1 [Compound 55]
reported.result: 45 min
//
compound: C[C@](O)(Cn1cc(C=O)c2cc(F)ccc21)C(=O)Nc1ccc(C#N)c(C(F)(F)F)c1 [Compound 49]
reported.result: 36 min

====

test: Metabolic stability in mouse liver microsomes (MLM); settings: mouse, microsomes, pH 7.5
microsomal CLint at 1 μM for assorted compounds

compound: C[C@](O)(Cn1nc(Cl)c2cc(F)ccc21)C(=O)Nc1ccc(C#N)c(Cl)c1 [Compound 99F]
scale.unit: µL/min/mg
microsomal CLint at 1 μM: 2.5
--
compound: C[C@](O)(Cn1nc(Cl)c2c(C(F)(F)F)cccc21)C(=O)Nc1ccc(C#N)c(C(F)(F)F)c1 [Compound 99G]
scale.unit: µL/min/mg
microsomal CLint at 1 μM: 0.66
--
compound: C[C@](O)(Cn1cc(C=O)c2cc(F)ccc21)C(=O)Nc1ccc(C#N)c(C(F)(F)F)c1
scale.unit: µL/min/mg
microsomal CLint at 1 μM: 19.1
--
compound: C[C@](O)(Cn1nc(Cl)c2c(C(F)(F)F)cccc21)C(=O)Nc1cnc(C#N)c(C(F)(F)F)c1 [Compound 99H]
scale.unit: µL/min/mg
microsomal CLint at 1 μM: 0.6
--
compound: C[C@](O)(Cn1cc(C=NO)c2cc(F)ccc21)C(=O)Nc1cnc(C#N)c(C(F)(F)F)c1
scale.unit: µL/min/mg
microsomal CLint at 1 μM: 50.1

====

experiment: Metabolic stability in rat liver microsomes (RLM); format: in vitro ADME; settings: pH 7.5, FIGS. 11, 12, in vitro RLM

mol.smiles: C[C@](O)(Cn1cc(C=O)c2cc(F)ccc21)C(=O)Nc1ccc(C#N)c(C(F)(F)F)c1
half-life at 1 μM: ~36 min
